# System: NCI-H520
# PROCEDURE_TEXT: Growth inhibitory activity against H520 (human lung) cancer cell line at 10 uM dose
# Format: functional
OBSERVED_PROPERTY: Cell survival (%)
Give bare numbers, in %.

Worked set:
SMILES: COc1ccc2c(C[C@@H]3NC(=O)[C@H]4CCCN4C3=O)c(CC=C(C)C)[nH]c2c1
Cell survival / %: 99.3

SMILES: COc1ccc2c(C[C@H]3NC(=O)[C@H]4CCCN4C3=O)c(CC=C(C)C)[nH]c2c1
Cell survival / %: 81.7

SMILES: CC(C)=CCc1[nH]c2ccccc2c1C[C@@H]1NC(=O)[C@H]2CCCN2C1=O
Cell survival / %: 88.3

SMILES: COc1ccc2c(C[C@@H]3NC(=O)[C@@H]4CCCN4C3=O)c(CC=C(C)C)[nH]c2c1
Cell survival / %: 80.1

Proceed to the following item.
Q) So what's the measured Cell survival for this one? CC(C)=CCc1[nH]c2ccccc2c1C[C@@H]1NC(=O)[C@@H]2CCCN2C1=O
A) 77.6
